PROTOCOL: Tmax in Sprague-Dawley rat at 10 mg/kg, po administered as single dose by LC-MS/MS analysis
Type: ADME, organism-based
PARTICULARS: in vivo
MEASUREMENT TYPE: Tmax (h)
Give the quantity in h, number only.

stdin: Field request: Tmax | item: Cl.Cn1c(-c2cc3c(s2)CNCC3)nc2c(C(N)=O)cc(F)cc21
stdout: 2.25

###

PROTOCOL: Solubility of the compound in pH 6.8 solution
Type: physicochemical
Exercise: for every item that follows, state its recorded solubility.

stdin: Need solubility of NC(=O)c1cc(F)cc2[nH]c(-c3cc4c(s3)CNCC4)nc12 , thanks.
stdout: > 50 µM

stdin: Returns the measured solubility for the input molecule. Input: Cn1c(-c2cc3c(s2)CNCC3)nc2c(C(N)=O)cc(F)cc21
stdout: > 50 µM
